System: four human cancer cell lines (A-549, MCF-7, Panc-1, HT-29)
protocol details: Antiproliferative assay, average over four cancer cell lines
Assay type: cell-based
condition details: Homo sapiens, read-out: Antiproliferative activity, Average (GI50)
measure: GI50 (nM)

Worked set:
compound	GI50 / nM
Brc1ccc(C2=NN/C(=N/C3CCCCC3)SC2)cc1 [Compound 9g]	54
Br.c1ccc(NC2=NN=C(c3ccccc3)CS2)cc1 [Compound 9a]	43

1. CC/N=C1/NN=C(c2ccc(Br)cc2)CS1 [Compound 9f]
2. Br.c1ccc(C2=NN/C(=N/C3CCCCC3)SC2)cc1 [Compound 9c]
[Q] Compare 1 and 2 and name the one whose reported GI50 is smaller. Return value: the label identifying the chosen record.
[A] 2

###

system: BRAF^V600E (Mus musculus, UniProt P28028, V585E)
Sequence (P28028 whole entry V585E): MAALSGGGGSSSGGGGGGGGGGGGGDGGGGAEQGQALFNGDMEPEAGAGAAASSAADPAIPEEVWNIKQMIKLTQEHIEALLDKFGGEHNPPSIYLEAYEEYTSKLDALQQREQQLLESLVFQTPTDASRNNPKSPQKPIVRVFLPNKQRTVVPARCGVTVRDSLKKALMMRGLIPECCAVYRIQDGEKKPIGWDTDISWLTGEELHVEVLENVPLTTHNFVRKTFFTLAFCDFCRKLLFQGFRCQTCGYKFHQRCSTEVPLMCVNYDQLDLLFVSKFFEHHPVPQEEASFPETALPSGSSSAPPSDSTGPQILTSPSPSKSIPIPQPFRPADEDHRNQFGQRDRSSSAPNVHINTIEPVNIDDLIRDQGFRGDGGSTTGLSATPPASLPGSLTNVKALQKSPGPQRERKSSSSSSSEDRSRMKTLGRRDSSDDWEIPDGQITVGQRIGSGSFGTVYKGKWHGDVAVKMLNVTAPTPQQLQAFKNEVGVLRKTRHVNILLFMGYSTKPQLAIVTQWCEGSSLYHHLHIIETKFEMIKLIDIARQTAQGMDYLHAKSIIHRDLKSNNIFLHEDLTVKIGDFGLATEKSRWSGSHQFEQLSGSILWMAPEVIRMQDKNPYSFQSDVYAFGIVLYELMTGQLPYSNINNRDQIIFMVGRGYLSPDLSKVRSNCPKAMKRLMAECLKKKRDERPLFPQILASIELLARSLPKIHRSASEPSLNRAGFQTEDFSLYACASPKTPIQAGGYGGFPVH
protocol details: BRAF^V600E inhibitory assay
measure: IC50 (nM)

Br.c1ccc(NC2=NN=C(c3ccccc3)CS2)cc1 83
Brc1ccc(C2=NN=C(Nc3ccccc3)SC2)cc1 88
Br.c1ccc(C2=NN/C(=N/C3CCCCC3)SC2)cc1 74

###

protocol details: Cell viability assay
Format: cell-based
condition details: human, MCF-10A mammary gland epithelial normal cells
measure: viability at 96 h, 50 µM (%)
// note: answer is a bare numeric in %

Br.c1ccc(NC2=NN=C(c3ccccc3)CS2)cc1 91
Br.C=CC/N=C1/NN=C(c2ccccc2)CS1 90
CC/N=C1/NN=C(c2ccc(Br)cc2)CS1 89

[Q] Field request: viability at 96 h, 50 µM | item: "Br.c1ccc(C2=NN/C(=N/C3CCCCC3)SC2)cc1"
[A] 92

[Q] Proceed to "C/N=C1/NN=C(c2ccc(Br)cc2)CS1"
[A] 92

[Q] Entry "Brc1ccc(C2=NN/C(=N/C3CCCCC3)SC2)cc1" please
[A] 88

[Q] Would you kindly repeat that for "Brc1ccc(C2=NN=C(Nc3ccccc3)SC2)cc1" ?
[A] 89

###

Test system: four human cancer cell lines (A-549, MCF-7, Panc-1, HT-29)
protocol details: Antiproliferative assay, average over four cancer cell lines
Type: cell-based
condition details: Homo sapiens, read-out: Antiproliferative activity, Average (GI50)
measure: GI50 (nM)

compound	system	GI50 [nM]
Br.C=CC/N=C1/NN=C(c2ccccc2)CS1 [Compound 9b]	four human cancer cell lines (A-549, MCF-7, Panc-1, HT-29)	56
Brc1ccc(C2=NN=C(Nc3ccccc3)SC2)cc1 [Compound 9d]	four human cancer cell lines (A-549, MCF-7, Panc-1, HT-29)	47
C/N=C1/NN=C(c2ccc(Br)cc2)CS1 [Compound 9e]	four human cancer cell lines (A-549, MCF-7, Panc-1, HT-29)	62
